test: Cytotoxicity against human Fem-X cells assessed as decrease in cell survival after 72 hrs by MTT assay; assay type: functional, cell-based; details: read-out: IC50
pIC50: −log10 of the molar value.
pIC50 values, listed per item

molecule: Cc1ccccc1/C=C/C(=O)c1ccccc1O
pIC50: 4.65
//
molecule: CCCNCC(O)COc1ccccc1C(=O)CCc1ccc(F)cc1.Cl (racemic)
pIC50: 5.02
//
molecule: Cc1ccc(/C=C/C(=O)c2ccccc2O)cc1
pIC50: 4.67
//
molecule: O=C(/C=C/c1ccc(F)cc1)c1ccccc1O
pIC50: 4.66
//
molecule: CCCNCC(O)COc1ccccc1C(=O)CCc1ccccc1C.Cl (racemic)
pIC50: 5.17
//
molecule: CCCNCC(O)COc1ccccc1C(=O)CCc1ccccc1Cl.Cl (racemic)
pIC50: 5.31
//
molecule: CCCNCC(O)COc1ccccc1C(=O)CCc1ccccc1F.Cl (racemic)
pIC50: 4.42
//
molecule: CCCNCC(O)COc1ccccc1C(=O)CCc1ccccc1C(F)(F)F.Cl (racemic)
pIC50: 4.79
//
molecule: O=C(/C=C/c1ccccc1Cl)c1ccccc1O
pIC50: 4.98
//
molecule: O=C(/C=C/c1ccccc1C(F)(F)F)c1ccccc1O
pIC50: 4.99
//
molecule: O=C(/C=C/c1ccccc1F)c1ccccc1O
pIC50: 5.06
//
molecule: CCCNCC(O)COc1ccccc1C(=O)CCc1ccc(C)cc1.Cl (racemic)
pIC50: 4.90
